Experimental protocol: The drug is tested on Eubacterium ventriosum strain: ATCC27560 for biotransformation. The drug concentrations were measured before and after a 12-h incubation by liquid-chromatography-coupled mass spectrometry (LC–MS)
Format: ADME
Design: dose 2 uM, timepoint 0 vs 12 hours
Experimental setup: 2 µM
Non-standard residues stand in square brackets, D forms with d. Residues, ends and D or L forms follow the SMILES beside them. pGlu = O=C1CC[C@@H](C(=O)O)N1; Thz = O=C(O)[C@@H]1CSCN1

# Compound, Bacterial Biotransformation
rows = [
    ("Nc1nnc(-c2cccc(Cl)c2Cl)c(N)n1 [LAMOTRIGINE]", "Compound NOT metabolized"),
    ("C[C@]12CCC(=O)C=C1[C@@H]1C[C@@H]1[C@H]1[C@@H]3[C@@H]4C[C@@H]4[C@@]4(CCC(=O)O4)[C@@]3(C)CC[C@@H]12 [DROSPIRENONE]", "Compound NOT metabolized"),
    ("CCC(C)n1ncn(-c2ccc(N3CCN(c4ccc(OCC5COC(Cn6cncn6)(c6ccc(Cl)cc6Cl)O5)cc4)CC3)cc2)c1=O (configuration not stated) [ITRACONAZOLE]", "Compound NOT metabolized"),
    ("COc1ccccc1N1CCN(CC(O)COc2cccc3ccccc23)CC1 (configuration not stated) [NAFTOPIDIL]", "Compound NOT metabolized"),
    ("CNCCC(Oc1ccc(C(F)(F)F)cc1)c1ccccc1 (configuration not stated) [FLUOXETINE]", "Compound metabolized"),
    ("CC(C(=O)O)c1ccc2c(c1)Cc1cccnc1O2 (configuration not stated) [PRANOPROFEN]", "Compound metabolized"),
    ("C[C@H]1O[C@@H](O[C@H]2[C@@H](O)C[C@H](O[C@H]3[C@@H](O)C[C@H](O[C@H]4CC[C@@]5(C)[C@H](CC[C@@H]6[C@@H]5C[C@@H](O)[C@]5(C)[C@@H](C7=CC(=O)OC7)CC[C@]65O)C4)O[C@@H]3C)O[C@@H]2C)C[C@H](O)[C@@H]1O [DIGOXIN]", "Compound NOT metabolized"),
    ("O=C1CC[C@@H](C(=O)N2CSC[C@H]2C(=O)O)N1 [PIDOTIMOD] ([pGlu]-[Thz]-OH)", "Compound NOT metabolized"),
    ("c1ccc2[nH]c(-c3cscn3)nc2c1 [THIABENDAZOLE]", "Compound NOT metabolized"),
    ("N#Cc1ccc(C(c2ccc(C#N)cc2)n2cncn2)cc1 [LETROZOLE]", "Compound NOT metabolized"),
    ("O=c1n(CCCN2CCN(c3cccc(Cl)c3)CC2)nc2ccccn12 [TRAZODONE]", "Compound NOT metabolized"),
    ("CC(C)(Oc1ccc(CCNC(=O)c2ccc(Cl)cc2)cc1)C(=O)O [BEZAFIBRATE]", "Compound metabolized"),
    ("COc1ccc2c(c1)c(CC(=O)O)c(C)n2C(=O)c1ccc(Cl)cc1 [INDOMETHACIN]", "Compound metabolized"),
    ("CC(C)(C)NCC(O)c1cc(Cl)c(N)c(Cl)c1 (configuration not stated) [CLENBUTEROL]", "Compound NOT metabolized"),
    ("CCN(CC)CC#CCOC(=O)C(O)(c1ccccc1)C1CCCCC1.Cl (configuration not stated) [OXYBUTYNIN CHLORIDE]", "Compound metabolized"),
    ("C=C[C@H]1CN2CC[C@H]1C[C@H]2[C@H](O)c1ccnc2ccc(OC)cc12.C=C[C@H]1CN2CC[C@H]1C[C@H]2[C@H](O)c1ccnc2ccc(OC)cc12.O.O.O=S(=O)(O)O [QUININE SULFATE]", "Compound NOT metabolized"),
    ("CCN(CC)CCOC(=O)C(Cc1cccc2ccccc12)CC1CCCO1.O=C(O)C(=O)O (configuration not stated) [NAFRONYL OXALATE]", "Compound NOT metabolized"),
    ("CC(C)(C)NCC(O)COc1cccc2c1CC(O)C(O)C2 (configuration not stated) [NADOLOL]", "Compound NOT metabolized"),
    ("CCCCC(=O)N(Cc1ccc(-c2ccccc2-c2nnn[nH]2)cc1)[C@H](C(=O)O)C(C)C", "Compound NOT metabolized"),
    ("CN(C)CC(c1ccc(O)cc1)C1(O)CCCCC1.O=C(O)CCC(=O)O (configuration not stated) [DESVENLAFAXINE SUCCINATE]", "Compound NOT metabolized"),
    ("CCN(CC)CCNC(=O)c1cc(Cl)c(N)cc1OC [METOCLOPRAMIDE]", "Compound NOT metabolized"),
    ("CS(=O)(=O)O.O.O.O.O=C1Cc2cc(CCN3CCN(c4nsc5ccccc45)CC3)c(Cl)cc2N1 [ZIPRASIDONE MESYLATE]", "Compound NOT metabolized"),
    ("C#C[C@]1(OC(C)=O)CC[C@H]2[C@@H]3CCC4=C[C@@H](OC(C)=O)CC[C@@H]4[C@H]3CC[C@@]21C [ETHYNODIOL DIACETATE]", "Compound NOT metabolized"),
    ("OC(Cn1cncn1)(Cn1cncn1)c1ccc(F)cc1F [FLUCONAZOLE]", "Compound NOT metabolized"),
    ("CN1CCN(CC/C=C2/c3ccccc3Sc3ccc(S(=O)(=O)N(C)C)cc32)CC1 [THIOTHIXENE]", "Compound metabolized"),
    ("COc1ccc(C(CN(C)C)C2(O)CCCCC2)cc1 (configuration not stated) [VENLAFAXINE]", "Compound NOT metabolized"),
    ("COc1cc2nc(N3CCN(C(=O)C4CCCO4)CC3)nc(N)c2cc1OC (configuration not stated) [TERAZOSIN]", "Compound NOT metabolized"),
    ("COCCCC/C(=N\\OCCN)c1ccc(C(F)(F)F)cc1.O=C(O)/C=C\\C(=O)O [FLUVOXAMINE MALEATE]", "Compound NOT metabolized"),
    ("CC(C)NCC(O)COc1ccc(CC(N)=O)cc1 (configuration not stated) [ATENOLOL]", "Compound NOT metabolized"),
    ("CC(=O)Nc1ccc(OC(C)=O)cc1 [DIACETAMATE]", "Compound metabolized"),
    ("COc1cc2nc(N3CCN(C(=O)c4ccco4)CC3)nc(N)c2cc1OC [PRAZOSIN]", "Compound NOT metabolized"),
    ("CC(C)NCC(O)COc1ccc(COCCOC(C)C)cc1.CC(C)NCC(O)COc1ccc(COCCOC(C)C)cc1.O=C(O)/C=C/C(=O)O (configuration not stated) [BISOPROLOL FUMARATE]", "Compound NOT metabolized"),
]
